# METHOD_DESCRIPTION: 384-well plate pilot, post-Golgi transport modulator project, inhibition of yeast transport mutant growth (AID 636)
# TEST_PARAMETERS: absorbance 615 nm, about 18 h, stronger effect = higher value
MEASURE_NAME: inhibition (%)

> print(dat)
                                    compound  measure.name  value.observed
 1  CC1(CC(=O)O)C(=O)N=C2C=CC=CN21 (configuration not stated)    inhibition           -4.93
 2  CC(C)OC(=O)CSc1nnc(-c2ccc(C(C)(C)C)cc2)n1N    inhibition            -2.6
 3       COc1ccc(C(=O)OCC(=O)NCc2ccco2)cc1OC    inhibition           -1.95
 4                 Cc1cc(-c2ccccc2)c2nncn2n1    inhibition           -8.27
 5                 COc1ccc(Cl)c(NCCC(=O)O)c1    inhibition           -1.37
 6  CC(C)C(=O)Nc1nnc(CCc2nnc(NC(=O)C(C)C)s2)s1    inhibition           -4.61
 7  COc1ccccc1NC(=O)C(O)C(O)C(=O)Nc1ccccc1OC (configuration not stated)    inhibition           -7.43
 8           O=C(Nc1cccc(C(F)(F)F)c1)c1ccco1    inhibition           -5.33
 9  CCn1c(=O)cc(SCC(=O)N2CCN(C3CCCCC3)CC2)c2ccccc21    inhibition           -0.92
10  COCCn1nnnc1C(c1ccc(OC)cc1)N1CCN(c2ccccc2F)CC1 (configuration not stated)    inhibition            -2.6
11       NS(=O)(=O)c1ccc(NCc2c(F)cccc2Cl)cc1    inhibition           -3.82
12  CC1(C)OC(=O)C(=CNC(CCC(N)=O)C(=O)O)C(=O)O1 (configuration not stated)    inhibition            6.49

----------
# METHOD_DESCRIPTION: reversal of MRP1-mediated doxorubicin resistance, pilot screen, H69AR cells, doxorubicin co-treatment (AID 601)
# TEST_PARAMETERS: H69AR cells + 2 uM doxorubicin, CellTiter-Glo, 72 h; measured here: viability with 2 uM doxorubicin; at 10 µM; stronger effect = lower value
Reported viability is given for each of the following molecules.
MEASURE_NAME: viability (%)

> print(dat)
                                   molecule  value.observed
1  CCn1cc(C(=O)N=c2sc3ccccc3n2C)c(=O)c2ccc(C)nc21            87.8
2  Cc1ccc(S(=O)(=O)Cc2ccc(C(=O)NCCCN3CCN(C)CC3)o2)cc1            92.1
3  Cc1ccc(C)c(/C(O)=C2\C(=O)C(=O)N(CCCN3CCOCC3)C2c2cccnc2)c1 (stereo not given)            95.3
4  CCOc1ccc(-n2c(C)nc3c(cnn3-c3ccc(Cl)cc3)c2=O)cc1            86.8
5  Cc1ccc(NC(=O)C2CCCN(S(=O)(=O)c3cnc[nH]3)C2)cc1C (stereo not given)            94.6

----------
# METHOD_DESCRIPTION: reversal of MRP1-mediated doxorubicin resistance, pilot screen, H69AR cells, doxorubicin co-treatment (AID 601)
# TEST_PARAMETERS: H69AR cells + 2 uM doxorubicin, CellTiter-Glo, 72 h; at 10 µM; stronger effect = higher value
Reported differential viability (reversal) is given for each of the following compounds.
MEASURE_NAME: differential viability (reversal) (%)

> print(dat)
                                    compound                       measure.name  unit.abbrev  value.observed
 1               O=C(NCc1cccnc1)c1ccc(=O)oc1  differential viability (reversal)            %           -4.97
 2  COc1ccccc1C1/C(=C(\O)c2c(C)nc3c(C)cccn23)C(=O)C(=O)N1CCCN(C)C (centres undefined)  differential viability (reversal)            %            12.5
 3  COCCN(CC(=O)NCc1ccccc1)C(=O)CCC(=O)Nc1ccccn1  differential viability (reversal)            %            1.44
 4                  c1cn2cc(CSC3CCCCC3)nc2s1  differential viability (reversal)            %            10.9
 5  N#Cc1c(N2C(=O)C3C4C=CC(C4)C3C2=O)sc2c1CCC2 (centres undefined)  differential viability (reversal)            %           -10.1
 6             CC(=O)N1CCN(C(C)=O)C1c1ccccc1  differential viability (reversal)            %            2.34
 7  COC(=O)c1ccc(-c2ccc(CNCC(O)c3ccccc3)o2)cc1 (centres undefined)  differential viability (reversal)            %            8.78
 8              O=C(Nc1cccnc1)c1noc2c1CCCCC2  differential viability (reversal)            %           -2.86
 9  Cc1cc(C)c(NC(=O)C2CCCN2CCO)c(C)c1 (centres undefined)  differential viability (reversal)            %           -3.78
10  Cc1cc(C)n(CC(=O)n2c3c(c4ccccc42)CCCC3)n1  differential viability (reversal)            %           -6.97
11  COc1ccc(CCn2c(-c3ccco3)nc3nc4ccccc4nc32)cc1  differential viability (reversal)            %           -29.9
12                 Cc1cccn2cc(-c3ccccc3)nc12  differential viability (reversal)            %            11.1
13     O=c1c2c(nc3nc(COc4ccccc4)[nH]n13)CCC2  differential viability (reversal)            %            10.9
14        COC(=O)[C@H](C)NC(=O)NCc1ccc(F)cc1  differential viability (reversal)            %            -8.8
15  C/C(N)=C(/C#N)C(=O)CSc1nnc(Nc2c(C)cccc2C)s1  differential viability (reversal)            %            28.5
16  CCc1nnc(NC(=O)c2cccc(C(=O)Nc3nnc(CC)s3)n2)s1  differential viability (reversal)            %            1.33
17  CCN(Cc1cc2cc(OC)ccc2[nH]c1=O)C(=O)c1ccncc1  differential viability (reversal)            %           -3.88
18  CCn1cc(C(=O)N=c2sc3ccccc3n2C)c(=O)c2ccc(C)nc21  differential viability (reversal)            %            7.91
19     O=C(CN1C(=O)CCSc2ccccc21)Nc1ccc(F)cc1  differential viability (reversal)            %            1.06
20   Nc1nnc(SCC(=O)N2CCc3ccccc32)n1-c1ccccc1  differential viability (reversal)            %            6.62
21  CCOc1ccc(CNC(=O)C2CCCN(S(C)(=O)=O)C2)cc1OC (centres undefined)  differential viability (reversal)            %            7.88
22  CCN(C(=O)COC(=O)c1cc(C)n(-c2ccc(F)cc2)c1C)C1CCS(=O)(=O)C1 (centres undefined)  differential viability (reversal)            %          -0.795
23    COC(=O)c1cc(Br)c(=O)n(-c2ccc(OC)cc2)c1  differential viability (reversal)            %            7.62
24         CCCc1cc(C(N)=O)c(NC(=O)c2ccco2)s1  differential viability (reversal)            %           -5.96
